- PROTOCOL DESCRIPTION: chemical genetic growth profiling, strain panel (AID 1159580);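 also: tested at 20 µM; growth read once vehicle control cultures reached saturation at 30 °C; 1 = growth at the plate median or of vehicle wells; lower values mean less growth of the strain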
- TEST PARAMETERS: S. cerevisiae strains, growth OD, strain wild type, active compounds read low
Hit rate of the full screen: of about 5,500 compounds, about 2,000 (36%) were called active. Not shown: some 18% with an inconclusive outcome. Some of the results follow.
Documented normalized growth across a set of compounds
Answer with a bare number; do not write a unit.

# SAMPLE SMILES, normalized growth
measured = [
    ("CC12CCC(CC1)C(C)(C)O2", 1.01),
]

# input Looking for the measured normalized growth of "O=c1[nH]cnc2ccc(Br)cc12" , can you help?
# output 1

# input Follow-up item: "CCOP(=S)(OCC)Oc1ccc2c(C)c(Cl)c(=O)oc2c1"
# output 0.981

# input // next record "CCn1cc(C(=O)O)c(=O)c2cnc(N3CCNCC3)nc21"
# output 0.998

# input Note, next up: "CCn1cc(C(=O)O)c(=O)c2cnc(N3CCCC3)nc21"
# output 1.01

# input Request: "Oc1cc(O)cc(/C=C/c2ccccc2)c1"
# output 1.01

# input Another compound to look at: "CCOc1ccc2c(c1)C(C)=CC(C)(C)N2"
# output 0.996

# input Now consider "O=C1O[C@@H](CO)[C@H](O)[C@@H](O)[C@@H]1O" .
# output 1

# input Consider next the compound "COc1ccc(/C=C/c2cc(O)cc(O[C@@H]3O[C@H](CO)[C@@H](O)[C@H](O)[C@H]3O)c2)cc1O" in the same way.
# output 1.01

# input Input "O=C(O)c1cc(=O)c(O)c2c(O)c(O)ccc2c1"
# output 1

# input Another compound: "Cc1ccc(CSC(=N)N)cc1"
# output 1.01
